Molecular target: human α7 nAChR (Homo sapiens, UniProt P36544)
Construct: expressed in transfected cells; host or cells: GH4C1 cells derived from rat pituitary (ATCC CCL-82.2)
Sequence (P36544 23-502): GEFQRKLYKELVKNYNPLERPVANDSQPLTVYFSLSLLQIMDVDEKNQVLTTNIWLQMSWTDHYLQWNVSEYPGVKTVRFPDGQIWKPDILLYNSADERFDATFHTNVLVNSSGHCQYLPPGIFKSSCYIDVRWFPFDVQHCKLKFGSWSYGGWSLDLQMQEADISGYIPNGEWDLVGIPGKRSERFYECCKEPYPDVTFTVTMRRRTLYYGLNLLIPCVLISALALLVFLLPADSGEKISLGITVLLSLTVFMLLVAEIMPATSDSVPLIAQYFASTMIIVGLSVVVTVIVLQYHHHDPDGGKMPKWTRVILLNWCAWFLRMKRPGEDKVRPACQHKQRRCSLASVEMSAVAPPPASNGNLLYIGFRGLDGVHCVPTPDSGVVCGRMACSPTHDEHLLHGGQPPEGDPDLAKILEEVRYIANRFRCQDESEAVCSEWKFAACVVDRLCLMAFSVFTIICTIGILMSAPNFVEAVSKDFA
Experiment: Evaluation of PAM activity with human α7 nACh receptor stably expressing cells (aequorin luminescence, FDSS7000)
Format: cell-based
Details: test compound 10 μmol/L; ACh added at EC20; ratio of RLU (Max-Min) of test wells to control wells
Items are presented alongside their recorded α7PAM (%) @ 10 μmol/L.
OBSERVABLE: α7PAM (%) @ 10 μmol/L

MOLECULE	OBSERVABLE	UNIT STRING	REPORTED
CCc1c(OC)ccc2c1cnn2C1CCN(C(=O)NC2CCOCC2)CC1	α7PAM (%) @ 10 μmol/L	%	255
CCOc1ccc2c(cnn2C2CCN(C(=O)NC3CCC(COC)CC3)CC2)c1 (centres unmarked)	α7PAM (%) @ 10 μmol/L	%	824
[2H]C([2H])([2H])c1ccc2c(cnn2C2CCN(C(=O)NC3CCC(OCC)CC3)CC2)c1 (centres unmarked)	α7PAM (%) @ 10 μmol/L	%	949
CCOc1nn(C2CCN(C(=O)NC3CCC(F)(F)CC3)CC2)c2ccc(CC)cc12	α7PAM (%) @ 10 μmol/L	%	1092
CCc1cccc2c1cnn2C1CCN(C(=O)N[C@H]2CC[C@H](OC(F)F)CC2)CC1	α7PAM (%) @ 10 μmol/L	%	187
COCC1CCC(NC(=O)N2CCC(n3ncc4cc(F)ccc43)CC2)CC1 (centres unmarked)	α7PAM (%) @ 10 μmol/L	%	331
CO[C@H]1CC[C@H](NC(=O)N2CCC(n3ncc4cc(-c5ccc(F)cc5)ccc43)CC2)CC1	α7PAM (%) @ 10 μmol/L	%	210
O=C(Nc1ccc(Cl)nn1)N1CCC(n2ncc3cc(C4CC4)ccc32)CC1	α7PAM (%) @ 10 μmol/L	%	193
